Values were extracted from paper PMC10156683.

test: in vivo; parameters: species or system prairie vole (Microtus ochrogaster); details: female, ip, 12 ug
Assay readout: tissue level at time at 10 min (ng/g)
Answers are plain numbers, in ng/g.

Entry CC[C@H](C)[C@@H]1NC(=O)[C@H](Cc2ccc(O)cc2)NC(=O)[C@@H](N)CSSC[C@@H](C(=O)N2CCC[C@H]2C(=O)N[C@@H](CC(C)C)C(=O)NCC(N)=O)NC(=O)[C@H](CC(N)=O)NC(=O)[C@H](CCC(N)=O)NC1=O [d5 OXT] ; tissue level at time at 10 min = 0.05
